# study system: 5-HT1A receptor (Homo sapiens, UniProt P08908)
# Construct: expressed in transfected cells; host or cells: HEK 293 (membrane preparation)
# Sequence (P08908 1-422): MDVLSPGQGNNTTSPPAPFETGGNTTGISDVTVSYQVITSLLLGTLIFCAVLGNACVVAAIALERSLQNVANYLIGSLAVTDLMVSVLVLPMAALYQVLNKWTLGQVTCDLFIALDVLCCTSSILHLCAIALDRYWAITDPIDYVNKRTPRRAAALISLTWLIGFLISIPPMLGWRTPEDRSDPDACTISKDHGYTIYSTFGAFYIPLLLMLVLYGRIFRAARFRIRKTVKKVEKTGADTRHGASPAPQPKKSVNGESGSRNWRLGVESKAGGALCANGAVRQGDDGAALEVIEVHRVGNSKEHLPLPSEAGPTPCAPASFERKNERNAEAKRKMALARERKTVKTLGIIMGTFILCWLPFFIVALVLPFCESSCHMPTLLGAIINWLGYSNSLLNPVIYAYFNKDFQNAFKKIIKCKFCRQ
# experiment: Radioligand binding, 5-HT1A receptor ([3H]8-OH-DPAT)
observable: pKi
Please express pKi as -log10 of the molar concentration.

Fill: pKi (5-HT1A receptor (Homo sapiens, UniProt P08908)) for this molecule COc1cc(OCC(F)(F)F)c(OC)cc1CCN
5.48

Provide the reported pKi (system: 5-HT1A receptor (Homo sapiens, UniProt P08908)) for C=C(C)COc1cc(OC)c(CCN)cc1OC
5.57

Lab note: 5-HT1A receptor (Homo sapiens, UniProt P08908) assay, enter pKi for COc1cc(OCC(F)F)c(OC)cc1CCN here
5.54
